Data origin, for the record: patent US20240400654A1

Test System: HRgpA-6H (Porphyromonas gingivalis) (UniProt P28784)
Test Details: ELISA, coated HRgpA-6H
Kindly state OD450 nm for each of the entries shown.
Give bare numbers.

INSERT INTO measurements (binder, measurement) VALUES
  ('KB001 mouse Fab VL T24A (Fab, V domains shown) VH: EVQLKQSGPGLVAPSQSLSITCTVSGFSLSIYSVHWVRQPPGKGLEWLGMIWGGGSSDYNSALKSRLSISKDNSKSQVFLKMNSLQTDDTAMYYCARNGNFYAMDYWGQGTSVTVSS VL: QIVLTQSPAIMSASLGERVTMTCAASSSVSSSFLHWYQQKPGSSPQLWIYSTSNLASGVPARFSGSGSGTSYSLTISSMEAEDAATYYCHQYHHSPYIYTFGGGTKLEIK', 0.757),
  ('KB001 mouse Fab VL S27K/S68Y (Fab, V domains shown) VH: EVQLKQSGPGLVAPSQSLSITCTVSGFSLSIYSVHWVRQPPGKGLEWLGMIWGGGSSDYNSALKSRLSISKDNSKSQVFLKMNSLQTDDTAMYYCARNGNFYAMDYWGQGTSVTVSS VL: QIVLTQSPAIMSASLGERVTMTCTASKSVSSSFLHWYQQKPGSSPQLWIYSTSNLASGVPARFSGSGYGTSYSLTISSMEAEDAATYYCHQYHHSPYIYTFGGGTKLEIK', 0.736);

Please turn your attention to the following entry.
Given the binder KB001 mouse Fab VH K64A (Fab, V domains shown) VH: EVQLKQSGPGLVAPSQSLSITCTVSGFSLSIYSVHWVRQPPGKGLEWLGMIWGGGSSDYNSALASRLSISKDNSKSQVFLKMNSLQTDDTAMYYCARNGNFYAMDYWGQGTSVTVSS VL: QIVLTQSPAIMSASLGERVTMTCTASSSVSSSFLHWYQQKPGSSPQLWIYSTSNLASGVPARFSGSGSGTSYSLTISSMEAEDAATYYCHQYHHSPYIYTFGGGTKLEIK , what is its reported OD450 nm? 0.89
